# Target desc: T1, human glucagon receptor (human, UniProt P47871 27-477)
# T1 construct: Cloned receptor expressed in 293HEK cells; also called human GluR; human GlucR
# T1 sequence (P47871 27-477): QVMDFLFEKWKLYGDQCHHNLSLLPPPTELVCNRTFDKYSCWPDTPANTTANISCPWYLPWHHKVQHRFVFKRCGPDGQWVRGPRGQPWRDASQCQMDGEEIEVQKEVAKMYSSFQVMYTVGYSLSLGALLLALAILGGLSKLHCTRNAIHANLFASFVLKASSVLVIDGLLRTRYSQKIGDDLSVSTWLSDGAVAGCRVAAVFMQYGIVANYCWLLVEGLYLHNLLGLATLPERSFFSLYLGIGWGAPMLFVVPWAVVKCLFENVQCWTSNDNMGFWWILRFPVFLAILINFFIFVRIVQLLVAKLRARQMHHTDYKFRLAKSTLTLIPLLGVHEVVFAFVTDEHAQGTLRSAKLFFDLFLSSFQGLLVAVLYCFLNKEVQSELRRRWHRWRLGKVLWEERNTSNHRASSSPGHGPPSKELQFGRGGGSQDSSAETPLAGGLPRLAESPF
# Assay procedure: competition with [125I]glucagon, SPA, membranes of 293HEK cells expressing the receptor
pKi: −log10 of the molar value.
Reported endpoint: pKi

>  <Binder>
Antibody of example 3 (Ab3) (antibody, human IgG4 S228P, kappa, F234A L235A, V domains shown, Humanized full antibody with kappa light chain and modified human IgG4 Fc) VH: QVQLQESGPGLVKPSETLSLTCTVSGDDITSGYWDWIRQPPGKGLEWIGYISYSGSTYYSPSLKSRVTISVDTSKNQFSLKLSSVTAADTAVYYCARPPGYYGFGPYALDYWGQGTLVTVSS VL: DIQMTQSPSSLSASVGDRVTITCSASSSVSYIHWYQQKPGKAPKLLIYTTSYLAHGVPSRFSGSGSGTDFTLTISSLQPEDFATYYCLQRSTLPPTFGGGTKVEIKR

>  <Experimental result>
> 7.30

$$$$
>  <Binder>
Fab fragment of antibody example 6 (Fab, V domains shown, Expressed in E. coli; Fab = VL+CL and VH+CH1 (Fc absent); also called Fab of Ab6; not shown: His tag) VH: QVQLQESGPGLVKPSETLSLTCTVSGDDITSGYHDWIRQPPGKGLEWIGYISYSGSTYYSPSLKSRVTISVDTSKNQFSLKLSSVTAADTAVYYCARPPAYYGFGPYALDYWGQGTLVTVSS VL: DIQMTQSPSSLSASVGDRVTITCSASSSVSYIHWYQQKPGKAPKLLIYTTSYLAHGVPSRFSGSGSGTDFTLTISSLQPEDFATYYCQQRSTLPPTFGGGTKVEIKR

>  <Experimental result>
> 7.30

$$$$
>  <Binder>
Fab fragment of antibody example 1 (Fab, V domains shown, Expressed in E. coli; Fab = VL+CL and VH+CH1 (Fc absent); also called Fab of Ab1; not shown: His tag) VH: QVQLQESGPGLVKPSETLSLTCTVSGDDITSGYWDWIRQPPGKGLEWIGYISYSGSTYYSPSLKSRVTISVDTSKNQFSLKLSSVTAADTAVYYCARPPGYYGFGPYALDYWGQGTLVTVSS VL: DIQMTQSPSSLSASVGDRVTITCSASSSVSYMHWYQQKPGKAPKLLIYTTSNLAHGVPSRFSGSGSGTDFTLTISSLQPEDFATYYCQWRSTLPPTFGGGTKVEIKR

>  <Experimental result>
> 7.30

$$$$
